# TESTED ON: Cholecystokinin receptor type A (Rattus norvegicus) (UniProt P30551)
# Sequence (P30551 whole entry): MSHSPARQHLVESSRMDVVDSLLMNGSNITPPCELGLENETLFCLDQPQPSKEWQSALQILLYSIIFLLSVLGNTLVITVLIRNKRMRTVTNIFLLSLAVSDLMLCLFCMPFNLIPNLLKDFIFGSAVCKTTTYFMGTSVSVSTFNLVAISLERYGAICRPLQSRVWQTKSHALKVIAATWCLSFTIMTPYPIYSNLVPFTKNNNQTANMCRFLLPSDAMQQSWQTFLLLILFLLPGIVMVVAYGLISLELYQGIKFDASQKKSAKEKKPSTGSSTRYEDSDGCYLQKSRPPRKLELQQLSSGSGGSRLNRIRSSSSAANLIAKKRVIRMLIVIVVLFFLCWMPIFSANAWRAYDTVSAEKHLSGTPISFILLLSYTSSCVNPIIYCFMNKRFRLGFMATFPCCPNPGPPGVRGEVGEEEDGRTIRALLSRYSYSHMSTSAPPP
# TEST SUMMARY: Ratio between IC50 CCK-A vs IC50 CCK-B(B2)
Hi! Just check whether Ratio is below 4. Below gives class 1, equal or above gives class 0.

INPUT: Field: below-cutoff. Rule: recorded Ratio strictly less than 4. Subject: CCC1(CC)CCC(NC(=O)C(CCC(=O)O)NC(=O)c2cccc(Cl)c2)CC1 (stereo not given)
OUTPUT: class 0

INPUT: # strict comparison: is reported Ratio < 4? input = O=C(O)CCC(NC(=O)c1cccc(Cl)c1)C(=O)NC1CCC2CCCCC2C1 (stereo not given)
OUTPUT: class 0

INPUT: Threshold test, Ratio < 4: CC(C)(C)CCNC(=O)C(CCC(=O)O)NC(=O)c1ccc2ccccc2c1 (stereo not given)
OUTPUT: class 0

INPUT: # check: Ratio < 4 for CCCCCNC(=O)C(CCC(=O)O)NC(=O)c1ccc(Cl)c(Cl)c1 (stereo not given)
OUTPUT: class 1

INPUT: Does the reported Ratio of the following compound sit strictly below 4? CCc1cccc(C(=O)NC(CCC(=O)O)C(=O)N2CCC3(CCCC3)CC2)c1 (stereo not given)
OUTPUT: class 0

INPUT: Here's an entry: CCCCCN(CCCCC)C(=O)C(CCC(=O)O)NC(=O)c1ccc2ccccc2c1 (stereo not given) . Is its Ratio below 4?
OUTPUT: class 1

INPUT: Hello, I'm reviewing records and need to know if Ratio of O=C(O)CCC(NC(=O)c1cccc(Cl)c1)C(=O)N1CCC2(CCCCC2)C1 (stereo not given) is below 4. Could you check?
OUTPUT: class 1

INPUT: In the record for CC(C)(C)CCNC(=O)C(CCC(=O)O)NC(=O)c1ccc(Cl)c(Cl)c1 (stereo not given) , is Ratio less than 4?
OUTPUT: class 0

INPUT: In plain terms, does CCCCCNC(=O)C(CCC(=O)O)NC(=O)c1cccc(Cl)c1 (stereo not given) come in under 4 for Ratio?
OUTPUT: class 1
